# SYSTEM_TESTED: Akt1 (Homo sapiens, UniProt P31749, S473D)
# Construct: The version of Akt used in these studies lacks the pleckstrin homology (PH) domain
# Sequence (P31749 118-480 S473D limits assumed, species assumed): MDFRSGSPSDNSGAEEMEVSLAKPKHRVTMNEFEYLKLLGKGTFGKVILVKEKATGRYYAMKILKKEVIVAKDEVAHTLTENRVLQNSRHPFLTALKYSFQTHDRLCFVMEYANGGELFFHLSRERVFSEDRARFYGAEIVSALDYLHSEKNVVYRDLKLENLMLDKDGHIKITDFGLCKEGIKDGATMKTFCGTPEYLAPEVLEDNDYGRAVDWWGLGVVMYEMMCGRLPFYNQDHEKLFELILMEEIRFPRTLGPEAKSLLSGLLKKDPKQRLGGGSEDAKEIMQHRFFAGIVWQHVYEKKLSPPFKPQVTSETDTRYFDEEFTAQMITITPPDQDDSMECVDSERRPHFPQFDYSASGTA
# PROTOCOL_SUMMARY: Akt1 kinase assay, fluorescence polarization (IMAP)
# Type: biochemical
# CONDITION_PARAMETERS: Table 1, concentration bins; read-out: Concentration Range at which exemplary compounds of formula I inhibit Akt kinase activity
ASSAY_ENDPOINT: IC50

Use these answered entries as a reference point.
[[record]]
compound = "N[C@]1(CNC(=O)c2ccc(F)cc2Cl)CCN(c2ncnc3[nH]cc(Cl)c23)C1"
test_value = "0.00025 to 0.0025 µM"

[[record]]
compound = "CCc1c[nH]c2ncnc(N3CC[C@@](N)(CNC(=O)c4cc(C)on4)C3)c12"
test_value = "0.00251 to 0.01 µM"

[[record]]
compound = "N[C@]1(CNC(=O)c2cccc(F)c2F)CCN(c2ncnc3[nH]cc(Cl)c23)C1"
test_value = "0.00251 to 0.01 µM"

[[record]]
compound = "Cc1c[nH]c2ncnc(N3CCC(N)(CNc4ccc(Cl)cc4F)C3)c12 (centres unmarked)"
test_value = "0.00251 to 0.01 µM"


Req: # query: IC50 of entry Cc1cccc(C(=O)NC[C@@]2(N)CCN(c3ncnc4[nH]cc(Cl)c34)C2)c1Cl
Resp: 0.00251 to 0.01 µM

Req: # query: IC50 of entry CCc1c[nH]c2ncnc(N3CC[C@](N)(CNC(=O)c4cccc(F)c4Cl)C3)c12
Resp: 0.0101 to 0.1 µM

Req: Name the recorded IC50 for Cc1c[nH]c2ncnc(N3CCC(N)(CNS(=O)(=O)c4ccccc4)C3)c12 (centres unmarked) .
Resp: 0.101 to 10 µM

Req: Name the reported IC50 value associated with the compound N#Cc1c[nH]c2ncnc(N3CC[C@](N)(CNC(=O)c4ccc(Cl)cc4)C3)c12
Resp: 0.0101 to 0.1 µM

---

# SYSTEM_TESTED: Akt1 (Homo sapiens, UniProt P31749, S473D)
# Construct: The version of Akt used in these studies lacks the pleckstrin homology (PH) domain
# PROTOCOL_SUMMARY: Akt1 kinase assay, fluorescence polarization (IMAP)
# Assay type: biochemical
# CONDITION_PARAMETERS: average Akt kinase activity (IC50); read-out: Avg Akt kinase, μM (50% inhibition)
ASSAY_ENDPOINT: log10 IC50 (log10 of the value in µM)
Please interpret these as log10 of IC50 where IC50 is in µM.

The following compounds have reported results that may help.
[[record]]
compound = "Cc1c[nH]c2ncnc(N3CC[C@](N)(CNC(=O)c4cccc(F)c4Cl)C3)c12"
test_value = -2.28

[[record]]
compound = "Cc1c[nH]c2ncnc(N3CC[C@](N)(CNC(=O)c4ccc(F)cc4Cl)C3)c12"
test_value = -2.01


Req: Lookup: log10 IC50 / Akt1 (Homo sapiens, UniProt P31749, S473D) / N[C@]1(CNC(=O)c2ccc(Cl)cc2)CCN(c2ncnc3[nH]cc(Cl)c23)C1
Resp: -2.26

Req: Form entry - test system: Akt1 (Homo sapiens, UniProt P31749, S473D); read-out: log10 IC50; compound: Cc1c[nH]c2ncnc(N3CC[C@](N)(CNC(=O)c4ccc(F)c(F)c4)C3)c12
Resp: -1.75

Req: Tell me reported log10 IC50 for COCCN(CC1(N)CCN(c2ncnc3[nH]cc(C)c23)C1)C(=O)Nc1ccccc1 (centres unmarked) , tested with Akt1 (Homo sapiens, UniProt P31749, S473D).
Resp: -0.28

Req: Request: log10 IC50, test system Akt1 (Homo sapiens, UniProt P31749, S473D), entry N[C@]1(CNC(=O)c2cccc(F)c2Cl)CCN(c2ncnc3[nH]cc(Cl)c23)C1
Resp: -2.16

Req: // lookup log10 IC50 | system=Akt1 (Homo sapiens, UniProt P31749, S473D) | key= Cc1c[nH]c2ncnc(N3CCC(N)(CSc4cccc(C(F)(F)F)c4)C3)c12 (centres unmarked)
Resp: -0.15

Req: Akt1 (Homo sapiens, UniProt P31749, S473D) / log10 IC50 / CCc1c[nH]c2ncnc(N3CC[C@](N)(CNC(=O)c4c(F)ccc(F)c4F)C3)c12 : value?
Resp: -1.76

---

# SYSTEM_TESTED: Akt1 (Homo sapiens, UniProt P31749, S473D)
# Construct: The version of Akt used in these studies lacks the pleckstrin homology (PH) domain
# PROTOCOL_SUMMARY: Akt1 kinase assay, fluorescence polarization (IMAP)
# Type: biochemical
# CONDITION_PARAMETERS: Table 3; read-out: Avg Akt kinase, μM (50% inhibition)
As shown below, each of these compounds has a reported IC50 value.
A number alone suffices; assume µM.

[[record]]
compound = "Cc1c[nH]c2ncnc(N3CCC(N)(CNc4ccccc4S(=O)(=O)N4CC[C@@H](F)C4)C3)c12 (stereo partly shown) [Example 15]"
system_tested = "Akt1 (Homo sapiens, UniProt P31749, S473D)"
assay_endpoint = "IC50"
test_value = 0.0154

[[record]]
compound = "N#Cc1c[nH]c2ncnc(N3CCC(N)(CNc4ccc(Cl)cc4)C3)c12 (stereo not shown) [Example 4]"
system_tested = "Akt1 (Homo sapiens, UniProt P31749, S473D)"
assay_endpoint = "IC50"
test_value = 0.041

[[record]]
compound = "Cc1c[nH]c2ncnc(N3CC[C@](N)(CNC4=NC(=O)CC=C4)C3)c12 [Example 56]"
system_tested = "Akt1 (Homo sapiens, UniProt P31749, S473D)"
assay_endpoint = "IC50"
test_value = 0.014

[[record]]
compound = "Cc1c[nH]c2ncnc(N3CCC(N)(CN(CCN(C)C)Cc4ccccc4)C3)c12 (stereo not shown) [Example 47]"
system_tested = "Akt1 (Homo sapiens, UniProt P31749, S473D)"
assay_endpoint = "IC50"
test_value = 0.172

[[record]]
compound = "Cc1cc(CNC[C@@]2(N)CCN(c3ncnc4[nH]cc(C)c34)C2)no1 [Example 53]"
system_tested = "Akt1 (Homo sapiens, UniProt P31749, S473D)"
assay_endpoint = "IC50"
test_value = 0.0293


Req: Returns the measured IC50 for the input compound. Input: Cc1c[nH]c2ncnc(N3CCC(N)(CNc4ccccc4N4CCOCC4)C3)c12 (stereo not shown) [Example 29]
Resp: 0.0101

Req: Item under review: Cc1c[nH]c2ncnc(N3CCC(N)(CNc4nccc(C(F)(F)F)n4)C3)c12 (stereo not shown) [Example 57] . Reported IC50?
Resp: 0.0287

Req: Please report the recorded IC50 for NC1(CNc2cccc(Oc3ccccc3)c2)CCN(c2ncnc3[nH]cc(Cl)c23)C1 (stereo not shown) [Example 6] .
Resp: 0.0134

Req: Look up IC50 for this compound: Cc1c[nH]c2ncnc(N3CC[C@](N)(CNc4cccc(C(F)(F)F)c4F)C3)c12 [Example 36]
Resp: 0.002

Req: Which IC50 is listed for NC1(CNc2cccc(C(F)(F)F)c2)CCN(c2ncnc3[nH]cnc23)C1 (stereo not shown) [Example 14] ?
Resp: 0.108

---

# SYSTEM_TESTED: Akt1 (Homo sapiens, UniProt P31749, S473D)
# Construct: The version of Akt used in these studies lacks the pleckstrin homology (PH) domain
# PROTOCOL_SUMMARY: Akt1 kinase assay, fluorescence polarization (IMAP)
# Assay type: biochemical
# CONDITION_PARAMETERS: Table 1, concentration bins; read-out: Concentration Range at which exemplary compounds of formula I inhibit Akt kinase activity
molecules and their reported IC50

Below are worked cases with known answers.
[[record]]
molecule = "Cc1c[nH]c2ncnc(N3CCC(N)(CNc4cccc(Cl)c4F)C3)c12 (centres unmarked)"
assay_endpoint = "IC50"
test_value = "2.51 to 10 nM"

[[record]]
molecule = "N[C@]1(CNC(=O)c2cc(F)ccc2F)CCN(c2ncnc3[nH]cc(Cl)c23)C1"
assay_endpoint = "IC50"
test_value = "0.25 to 2.5 nM"

[[record]]
molecule = "Cc1c[nH]c2ncnc(N3CC[C@](N)(CNC(=O)c4c(F)cccc4F)C3)c12"
assay_endpoint = "IC50"
test_value = "10.1 to 100 nM"

[[record]]
molecule = "Cc1c[nH]c2ncnc(N3CC[C@](N)(CNC(=O)c4cccc(F)c4Cl)C3)c12"
assay_endpoint = "IC50"
test_value = "2.51 to 10 nM"

[[record]]
molecule = "N[C@]1(CNC(=O)c2cccc(Cl)c2)CCN(c2ncnc3[nH]cc(Cl)c23)C1"
assay_endpoint = "IC50"
test_value = "2.51 to 10 nM"


Req: So what does the record say about IC50 for Cc1ccn2ncnc(N3CCC(N)(CNc4cccc(Cl)c4Cl)C3)c12 (centres unmarked) ?
Resp: 2.51 to 10 nM

Req: Reported IC50, molecule Cc1c[nH]c2ncnc(N3CCC(N)(CNS(=O)(=O)c4c(F)cccc4F)C3)c12 (centres unmarked) : ____
Resp: 10.1 to 100 nM

Req: For the molecule Cc1c[nH]c2ncnc(N3CCC(N)(CNc4ccccc4N4CCOCC4)C3)c12 (centres unmarked) , what IC50 is on record?
Resp: 10.1 to 100 nM
